test: Toxicity liver stage against HepG2, at 10uM; format: cell-based; set-up: test concentration 10 uM, cell line HepG2-A16-CD81EGFP; conditions: human, HepG2-A16-CD81EGFP cells; read-out: INHIBITION
Reported cytotoxicity at 10 µM is given for each of the following molecules.
Measure name: cytotoxicity at 10 µM (%)

OC1(CN2CCCCC2)CCN(c2cccc(C(F)(F)F)n2)C1 (stereo unspecified)    -10.4
Nc1nc(CCC(=O)N2C[C@H](c3ccccc3)[C@@H](N)C2)cs1    4.49
CC(C)N1CCCC(CCCc2ccccn2)(C(=O)O)C1 (stereo unspecified)    2.6
O=C(c1ccccc1Cl)N1CCN(CCc2ccccn2)CC1    5.75
CCOc1ccnc(N2CCN(CCOC)CC2)n1    4.49
CC[C@H]1CN2CC[C@H]1C[C@@H]2CNC(=O)Nc1cc(OC)cc(OC)c1    3.39
NC1(C(=O)NCC2CCCN(Cc3ccccc3F)C2)CCCC1 (stereo unspecified)    -43.2
Cc1ccc(C(=O)NCc2ccnc(N3CCN(C)CC3)c2)cn1    -2.07
O=C(Cc1cccs1)N1C[C@@H]2COC[C@]2(COc2cccnc2)C1    -21.1
CC(=O)N1CCC(n2nccc2-c2cnc(N)nc2)CC1    1.3
Cc1cc(Cl)c2c(c1)C1(NC(=O)c3cccnc3N1)C(=O)N2 (stereo unspecified)    4.97

====

assay: Toxicity liver stage against HepG2, at 10uM; format: cell-based; design: test concentration 10 uM, cell line HepG2-A16-CD81EGFP; details: human, HepG2-A16-CD81EGFP cells; read-out: INHIBITION
Measure name: cytotoxicity at 10 µM (%)

CC(CN1CCOCC1)NC(=O)c1cc(Cl)c2c(c1)OCCO2 (stereo not drawn)    -1.4
CC(C)c1ccc2c(c1)C1(CC(=O)Nc3[nH]ncc31)C(=O)N2C (stereo not drawn)    -0.582
COCc1cncc2c1CCN(C(=O)c1cscn1)C2    -104
CSCCC(CO)NC(=O)c1ccc2[nH]/c(=N\S(C)(=O)=O)sc2c1 (stereo not drawn)    -6.96
CCCc1nccn1-c1cccc(C(C)O)c1 (stereo not drawn)    5.82
CN(C)C(=O)N1CCCC2(CCN(c3ccsc3)C2=O)C1 (stereo not drawn)    -72.5
COCCc1noc(CN2CCCC2Cn2nc(C)cc2C)n1 (stereo not drawn)    -1.92
N#CCCN1CCC(=Cc2ccccc2)CC1    -2.75
CCc1nnsc1C(=O)NCc1nnc2n1CCCCC2    0.136
COCCn1cnnc1Cn1ccnc1-c1ccoc1    -2.66
Cc1c(C(=O)N2CCCC(n3nnc4cc(F)ccc43)C2)cnn1C (stereo not drawn)    -18.3
O=C(c1ccc2c(c1)[nH]c(=O)n2C1CCCC1)N1CCSCC1    -42.3
CC(=O)NC(C)C(=O)Nc1ccc(OCc2cccc(F)c2)cc1C (stereo not drawn)    0.305
COCCN(Cc1cnn(C)c1)C(=O)C1COc2c(cccc2OC)C1 (stereo not drawn)    -11.9
O=C(CCc1nc2cc(Br)cnc2[nH]1)NCCCn1ccnc1    0.905
CCC(C)CNC(=O)[C@@H]1CCCN1c1nccc(Nc2ccccc2)n1 (stereo partly drawn)    3.57
COCCN(C/C=C/c1ccccc1)Cc1ncc[nH]1    7.8
CC(=O)c1ccc(Cl)c(Cl)c1OCC(=O)NC(C)C    -9.66
COc1ccc(CC(=O)N2CCN(c3nccn3C)CC2)cc1    5.06
Cc1cccc2[nH]c(C3CCN(C(=O)c4c[nH]c(=O)[nH]c4=O)CC3)nc12    8.59
O=S(=O)(NCC(c1ccsc1)N1CCCCCC1)c1cccs1 (stereo not drawn)    2
Cc1cc(NC2CC3(CCN(Cc4ncccc4F)C3)C2)ncn1 (stereo not drawn)    0.0666
NC(=O)c1ccc(C(=O)N2CCCCC2Cn2cccn2)s1 (stereo not drawn)    0.977
CC(=O)N1CCC1c1cc(N2CC(O)C2)nc(C)n1 (stereo not drawn)    5.76
O=C(c1ccnc(-n2cnnc2)c1)N1CCCC2(CCOC2)C1 (stereo not drawn)    -15.1
COc1ccccc1OCCCc1cc(C)nc(N)n1    0.915
c1cncc(CO[C@H]2CO[C@@]3(CCN(Cc4ccoc4)C3)C2)c1    -3.24
Cc1ccc2oc(C(=O)N3CCCC(n4ccnc4C)C3)cc2n1 (stereo not drawn)    -3.37
CN1CCCCC12CCN(c1nncs1)C2 (stereo not drawn)    7.1
CN1CC(C(=O)N(C)Cc2cc(-c3cccnc3)no2)NC1=O (stereo not drawn)    -3.08
O=C(CCc1cscn1)N1CCCC(c2ccn[nH]2)C1 (stereo not drawn)    -9.14
Cc1nccc([C@H]2C[C@@H]3CCN(S(=O)(=O)C4CC4)C[C@H]3O2)n1    -2.3
CC(C)(C)C(=O)Cn1nc(C2CC2)cc(C(F)(F)F)c1=O    -8.06
O=c1c2ccccc2nc2n1C(CSc1ccc(F)cc1)CN2 (stereo not drawn)    11.2
Cc1ncnc2c1CCN(C(=O)Cc1ccccn1)CC2    8.12
COCCSCC(=O)NC1(c2cccc(Br)c2)CC1    13.3
O=C(C1CCC1)N1CCC(C(=O)N2CCC(c3ccc(F)cc3)C2)CC1 (stereo not drawn)    -39.8
Cc1ccccc1CSc1nc(=O)n(CCO)c2c1CCC2    20.6
COc1ccc(OCc2cc(C(=O)N3CCSCC3)n[nH]2)c(Cl)c1    -7.51
O=C(NCCCn1cccn1)N1CCCC1c1ccncc1 (stereo not drawn)    21.5
CCC[C@H]1CN(S(C)(=O)=O)C[C@@H]1NC(=O)c1ccc(COC)cc1    1.1
CN(C)C(=O)N1CCC2(CC1)CCN(Cc1ccccn1)C2=O    2.05
Cc1noc(C2(C)CCCN(C(=O)c3cnn(C)c3)C2)n1 (stereo not drawn)    -17.3
Cc1nc(=O)c2ccccc2n1C1=CCN(CC(=O)N2CCCC2)CC1    -7.45
COC[C@@H]1CN(C)C(=O)[C@@H]2CCN(Cc3ccco3)CC[C@H]12    -6.13
O=C(Cc1ccc2c(c1)CCCC2)NCCc1ccccn1    1.9
Cc1ccc(N2CCCC(NCc3cnc(C)s3)C2)nn1 (stereo not drawn)    -0.755
CN1C(=O)CCc2cc(NC(=O)C3CC(=O)N(CC4CC4)C3)ccc21 (stereo not drawn)    -12.2

====

experiment: Toxicity liver stage against HepG2, at 10uM; format: cell-based; parameters: test concentration 10 uM, cell line HepG2-A16-CD81EGFP; conditions: human, HepG2-A16-CD81EGFP cells; read-out: INHIBITION
Listing: cytotoxicity at 10 µM of selected compounds
Measure name: cytotoxicity at 10 µM (%)

c1cncc(N2CCOCC3(CCCN(c4nncs4)C3)C2)c1 (stereo not drawn)    -1.42
CCOC[C@H]1CC[C@H]2[C@H](CCN2C(=O)c2ccncc2F)O1    -6.96
Cc1nc(C)n(CC2CCCCN2Cc2nnc(-c3ccco3)o2)n1 (stereo not drawn)    -10.2
CCn1cnnc1CNC(=O)NC(c1cccs1)C1CCCC1 (stereo not drawn)    -11.2
CCCc1cc(=O)[nH]c(-c2ccccc2CN(C)CCn2cccn2)n1    -1.41
CC(C)CN1C[C@@H]2C(=O)NC3(CCN(C(=O)c4cccnc4)CC3)[C@@H]2C1    5.53
O=C(Nc1cccnc1)N(Cc1ccccc1)C1CC1    7.78
Cc1ccccc1C(=O)NC1CCN(c2cnn(C)c2)C1=O (stereo not drawn)    4.19
c1ccc(CN2C[C@@H]3OCCN(c4cccnc4)[C@@H]3C2)nc1    -72.8
O=C(C1CC=CC1)N1C[C@@H]2CN(Cc3ccsc3)CCO[C@@H]2C1    -87.4
CCc1ncc(C(=O)NC(C)(C)C(=O)OC)s1    5.01
CCN1C[C@H]2N(c3ncccn3)CCC[C@@]2(C(=O)NCC2CC2)C1    -97.3
CN1CCN(CCCNS(=O)(=O)Cc2ccccc2F)CC1    -11.1
Cc1ccc(C(=O)N2CCCN(Cc3cccs3)CC2)n1C    -0.926
CN(Cc1cccc(Cl)c1)C(=O)Cn1nc(-c2ccc(F)cc2)oc1=O    -19.9
Cc1cc(C)n(CC2CCCN2CC(=O)N(C)Cc2cnn(C)c2)n1 (stereo not drawn)    -5.85
CC(C)N1CCCC2(CCN(C(=O)COCC(F)(F)C(F)F)C2)C1=O (stereo not drawn)    13.1
CC(=O)N1CCN(C(=O)c2c(Cl)c3ccccc3n2C)CC1    12.5
O=C(Cc1ccsc1)N1CCC(n2nc(-c3ccco3)ccc2=O)CC1    -8.98
Cn1ncc(N2CCOCC2)c(Cl)c1=O    -13.8
Cc1ccc(NCCCc2c(C)noc2C)nn1    8.12
Cc1ccc(NC2CCN(C(=O)CN(C)C3CC3)CC2)nn1    4.64
N[C@H]1CN(S(=O)(=O)Cc2ccccc2)C[C@@H]1C1CC1    -133
